Readings of IC50 (nM) mean, STAT3-luc reporter gene assay for the listed binders
Study system: human IL-6 (mature hIL-6) (human, UniProt P05231 30-212)
Sequence (P05231 30-212): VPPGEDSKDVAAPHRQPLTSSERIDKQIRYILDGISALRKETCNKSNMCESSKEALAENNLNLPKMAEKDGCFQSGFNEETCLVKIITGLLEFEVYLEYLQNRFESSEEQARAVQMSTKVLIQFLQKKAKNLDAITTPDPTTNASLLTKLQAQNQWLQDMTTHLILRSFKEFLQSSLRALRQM
Protocol notes: cell-based or functional assay
Supply the numeric figure in nM, leaving out any unit text.

binder="Compound 15 (VHH, Chem. 26 (C18 fatty acid substituent) on Cys in position 4 of the extension (SEQ ID NO: 161)) VHH: EVQLVESGGGLVQPGGSLKLSCTTSGRRFSEYAVGWFRQAPGKEREFVADIGEQAENTWYAESVLGRFTISRDDAKNTVYLEMDGLKPEDTAVYYCAADKYGVGGNAQGYYDSWGQGTQVTVSS" readout_value=0.046
binder="Compound 17 (VHH, Chem. 24 (C16 fatty acid substituent) on Cys in position 4 and on Cys in position 6 of the extension (SEQ ID NO: 162)) VHH: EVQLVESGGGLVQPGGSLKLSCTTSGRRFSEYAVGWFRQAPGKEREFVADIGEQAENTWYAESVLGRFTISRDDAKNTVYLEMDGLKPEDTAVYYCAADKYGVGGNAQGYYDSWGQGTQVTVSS" readout_value=0.04

Prompt: GET /values?readout=IC50 (nM) mean, STAT3-luc reporter gene assay&item= Compound 18 (VHH, Chem. 26 (C18 fatty acid substituent) on Cys in position 4 and on Cys in position 6 of the extension (SEQ ID NO: 162)) VHH: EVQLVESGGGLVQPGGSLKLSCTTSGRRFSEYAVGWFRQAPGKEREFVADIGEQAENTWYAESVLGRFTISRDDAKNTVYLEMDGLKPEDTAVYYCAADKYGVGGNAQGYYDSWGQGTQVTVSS
Completion: 0.043

Prompt: Given Compound 14 (VHH, Chem. 24 (C16 fatty acid substituent) on Cys in position 4 of the extension (SEQ ID NO: 161)) VHH: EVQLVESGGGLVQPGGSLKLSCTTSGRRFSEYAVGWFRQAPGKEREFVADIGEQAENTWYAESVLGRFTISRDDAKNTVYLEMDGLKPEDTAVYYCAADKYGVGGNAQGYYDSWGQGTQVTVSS , state its recorded IC50 (nM) mean, STAT3-luc reporter gene assay.
Completion: 0.041
